Measured values drawn from PubChem BioAssay (NCI) for this set.

System: 786-0 renal
assayDetails: NCI tumour cell line growth inhibition, 48 h
observedProperty: GI50

molecule	GI50
CC1(C)OB(c2ccc(N(CCOS(C)(=O)=O)CCOS(C)(=O)=O)cc2)OC1(C)C	3.41 µM
Cc1cccc2c(C3=C(c4cn(C)c5ccccc45)C(=O)NC3=O)cn(C)c12	> 22.1 µM
C[C@H]1CCC/C=C/C2CC(OC(=O)CN(C)C)CC2C(OC(=O)CN(C)C)/C=C/C(=O)O1 (some centres not stated)	0.107 µM
C[C@@H]1CC[C@H]2[C@@H](C)C(O)O[C@@H]3O[C@]4(C)CC[C@@H]1[C@]32OO4 (some centres not stated)	1.59 µM

What does the data say about its GI50? Entry: "Cc1cc(S(=O)(=O)/N=C(\N)Nc2cccc(O)c2)c(SCc2ccccc2)cc1Cl"
16.9 µM

What does the data say about its GI50? Entry: Nc1nc(N)c2c(n1)NC(c1sc(Cl)nc1Cl)CC(c1ccccc1)=N2 (configuration not stated)
5.05 µM

What does the data say about its GI50? Entry: Nc1nc(=O)n(C2CC(O)C(CO)O2)cc1F (configuration not stated)
0.0589 µM
